// values below are reported CC50 at 96 h
Test: Cytotoxicity against human MT4 cells after 96 hrs by MTT method
Type: cell-based
# unit: µM | format: bare number

Solved cases (2 shown):
structure_smiles=Nc1ccnc2ccc3ncccc3c12 u=µM measured=50
structure_smiles=Clc1c(Cl)c2ncccc2c2cccnc12 u=µM measured=24

q: Give the measured CC50 at 96 h for O=c1cc[nH]c2c(Cl)c(Cl)c3ncccc3c12
a: 47

q: Using known records, supply CC50 at 96 h for CCOC(=O)c1c[nH]c2c(Cl)c(Cl)c3ncccc3c2c1=O
a: 32

* * *

Experiment: Cytotoxicity against MDBK cells after 48 to 120 hrs by MTT method
Type: cell-based, Bos taurus
Conditions: cattle
Reported CC50 is given for each of the following compounds.
API: value field is a number in µM; no unit string.

structure_smiles=CC(=O)Nc1ccnc2c(Cl)c(Cl)c3ncccc3c12 value_type=CC50 u=µM measured=32
structure_smiles=Nc1ccnc2c(Cl)c(Cl)c3ncccc3c12 value_type=CC50 u=µM measured=24
structure_smiles=CCOc1ccnc2ccc3ncccc3c12 value_type=CC50 u=µM measured=64
structure_smiles=Clc1c(Cl)c2nccc(Cl)c2c2cccnc12 value_type=CC50 u=µM measured=54
structure_smiles=Nc1ccnc2ccc3ncccc3c12 value_type=CC50 u=µM measured=63

Let's switch to this compound now.
q: Tell me its CC50 given CCOc1ccnc2c(Cl)c(Cl)c3ncccc3c12 as the entry.
a: 64
